// data source = the supplement of paper PMC10126150

test system: ATP; test: switch fluorescence ratio, 500 uM ATP over buffer (Cy3 cluster intensity, sum of 5 cycles each) (fold (ratio)); higher = stronger signal-on switching upon ATP binding; sequences stand for … in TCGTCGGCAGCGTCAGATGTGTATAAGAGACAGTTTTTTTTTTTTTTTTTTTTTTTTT…TC; conditions: aptamer strand: ATP DNA aptamer (quencher-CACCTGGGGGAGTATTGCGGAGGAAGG + anchor), 100 nM annealed; ATP concentration: 500 uM;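 also: ATP exposure 15 min at 22 °C before imaging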
endpoint_name: switch fluorescence ratio
Just the number, please, no unit after it.

Query: Looking for the measured switch fluorescence ratio of ATGTATCATA , can you help?
Result: 0.993

Query: I am curious: what switch fluorescence ratio value has been reported for TTTTTAAATT ?
Result: 0.997

Query: For the sequence GGTCCTGGCT , what switch fluorescence ratio is on record?
Result: 1.01

Query: Bench note: what switch fluorescence ratio did TATTGAGTAA show?
Result: 1.02
